Biological target: Rat α3β2 nAChR (Rattus norvegicus, UniProt P04757+P12390)
Construct: expressed in transfected cells; host or cells: Xenopus laevis oocytes, cRNA injected
Sequence (P04757 26-499 limits assumed): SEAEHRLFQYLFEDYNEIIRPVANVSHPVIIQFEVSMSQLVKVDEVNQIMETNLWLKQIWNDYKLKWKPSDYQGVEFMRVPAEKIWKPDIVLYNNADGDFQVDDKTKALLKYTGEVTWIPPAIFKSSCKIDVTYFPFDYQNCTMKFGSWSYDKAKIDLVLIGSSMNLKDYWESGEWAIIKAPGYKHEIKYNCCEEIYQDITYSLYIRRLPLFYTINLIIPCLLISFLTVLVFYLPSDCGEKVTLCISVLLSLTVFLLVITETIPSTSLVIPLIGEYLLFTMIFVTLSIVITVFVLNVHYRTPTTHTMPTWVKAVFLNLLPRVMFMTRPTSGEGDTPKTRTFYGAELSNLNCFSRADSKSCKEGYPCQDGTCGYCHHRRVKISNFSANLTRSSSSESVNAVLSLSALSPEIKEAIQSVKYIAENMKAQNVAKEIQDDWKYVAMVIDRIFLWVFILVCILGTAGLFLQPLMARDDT
Sequence (P12390 25-500 limits assumed): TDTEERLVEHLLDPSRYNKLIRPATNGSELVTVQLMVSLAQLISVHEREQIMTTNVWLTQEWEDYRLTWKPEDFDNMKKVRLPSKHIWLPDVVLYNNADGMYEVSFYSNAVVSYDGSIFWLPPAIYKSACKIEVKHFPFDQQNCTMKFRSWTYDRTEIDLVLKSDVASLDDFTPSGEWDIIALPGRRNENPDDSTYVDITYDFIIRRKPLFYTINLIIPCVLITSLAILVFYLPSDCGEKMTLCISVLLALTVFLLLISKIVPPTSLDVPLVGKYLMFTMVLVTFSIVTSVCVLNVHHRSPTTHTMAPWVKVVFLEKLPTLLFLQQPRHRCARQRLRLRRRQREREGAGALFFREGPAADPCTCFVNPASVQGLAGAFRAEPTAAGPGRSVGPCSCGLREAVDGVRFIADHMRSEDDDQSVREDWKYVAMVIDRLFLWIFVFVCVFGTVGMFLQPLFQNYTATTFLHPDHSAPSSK
Experiment: cell-based
Type: cell-based
Where a SMILES comes first, the peptide text is derived from it. Bridges are numbered along the chain shown (N, C = ends).
observedProperty: Ratio IC50 α3β2/IC50 α6/α3β2β3
Answers are plain numbers.

compound	targetSystem	resultValue
CC(C)C[C@@H]1NC(=O)[C@H](Cc2c[nH]cn2)NC(=O)[C@@H]2CSSC[C@H](NC(=O)CN)C(=O)N[C@@H](CSSC[C@@H](C(N)=O)NC(=O)[C@H](C)NC(=O)[C@H](CC(N)=O)NC(=O)[C@H](CO)NC(=O)[C@H](Cc3c[nH]cn3)NC(=O)[C@H](C)NC1=O)C(=O)N[C@@H](CO)C(=O)N[C@@H](CC(N)=O)C(=O)N1CCC[C@H]1C(=O)N[C@@H](C(C)C)C(=O)N2 [MII[E11A; L15A]] (H-GCCSNPVCHLAHSNAC-NH2; disulfide 2-8, 3-16)	Rat α3β2 nAChR (Rattus norvegicus, UniProt P04757+P12390)	121

Continue with the next compound.
In plain terms, CC(C)[C@@H]1NC(=O)[C@@H]2CCCN2C(=O)[C@H](CC(N)=O)NC(=O)[C@H](CO)NC(=O)[C@@H]2CSSC[C@@H](C(N)=O)NC(=O)[C@H](C)NC(=O)[C@H](CC(N)=O)NC(=O)[C@H](CO)NC(=O)[C@H](Cc3c[nH]cn3)NC(=O)[C@H](CCC(=O)O)NC(=O)[C@H](C)NC(=O)[C@H](Cc3c[nH]cn3)NC(=O)[C@H](CSSC[C@H](NC(=O)CN)C(=O)N2)NC1=O [MII[L10A; L15A]] (H-GCCSNPVCHAEHSNAC-NH2; disulfide 2-8, 3-16) has a documented Ratio IC50 α3β2/IC50 α6/α3β2β3 of 9.56

====

Target: Rat α3β2 nAChR (Rattus norvegicus, UniProt P04757+P12390)
Experiment: cell-based
Where a SMILES comes first, the peptide text is derived from it. Bridges are numbered along the chain shown (N, C = ends).
observedProperty: pIC50
Give bare numbers, as −log10 of the molar value.

The cases that follow already have their pIC50 on record.
compound	observedProperty	resultValue
CC(C)C[C@@H]1NC(=O)[C@H](CC(N)=O)NC(=O)[C@H](CO)NC(=O)[C@H](C)NC(=O)[C@H](CCC(=O)O)NC(=O)[C@H](CC(C)C)NC(=O)[C@H](Cc2c[nH]cn2)NC(=O)[C@@H]2CSSC[C@H](NC(=O)CN)C(=O)N[C@@H](CSSC[C@@H](C(N)=O)NC1=O)C(=O)N[C@@H](CO)C(=O)N[C@@H](CC(N)=O)C(=O)N1CCC[C@H]1C(=O)N[C@@H](C(C)C)C(=O)N2 [MII[H12A]] (H-GCCSNPVCHLEASNLC-NH2; disulfide 2-8, 3-16)	pIC50	5.33
CC(C)C[C@@H]1NC(=O)[C@H](CC(N)=O)NC(=O)[C@H](CO)NC(=O)[C@H](Cc2c[nH]cn2)NC(=O)[C@H](CCC(=O)O)NC(=O)[C@H](C)NC(=O)[C@H](Cc2c[nH]cn2)NC(=O)[C@@H]2CSSC[C@H](NC(=O)CN)C(=O)N[C@@H](CSSC[C@@H](C(N)=O)NC1=O)C(=O)N[C@@H](CO)C(=O)N[C@@H](CC(N)=O)C(=O)N1CCC[C@H]1C(=O)N[C@@H](C(C)C)C(=O)N2 [MII[L10A]] (H-GCCSNPVCHAEHSNLC-NH2; disulfide 2-8, 3-16)	pIC50	8.83
CC(C)C[C@@H]1NC(=O)[C@H](CC(N)=O)NC(=O)[C@H](CO)NC(=O)[C@H](Cc2c[nH]cn2)NC(=O)[C@H](CCC(=O)O)NC(=O)[C@H](CC(C)C)NC(=O)[C@H](Cc2c[nH]cn2)NC(=O)[C@@H]2CSSC[C@H](NC(=O)CN)C(=O)N[C@@H](CSSC[C@@H](C(N)=O)NC1=O)C(=O)N[C@@H](CO)C(=O)N[C@@H](CC(N)=O)C(=O)N1CCC[C@H]1C(=O)N[C@@H](C)C(=O)N2 [MII[V7A]] (H-GCCSNPACHLEHSNLC-NH2; disulfide 2-8, 3-16)	pIC50	8.35

Continue with the next compound.
Given the compound CC(C)C[C@@H]1NC(=O)[C@H](CC(N)=O)NC(=O)[C@H](CO)NC(=O)[C@H](Cc2c[nH]cn2)NC(=O)[C@H](CCC(=O)O)NC(=O)[C@H](CC(C)C)NC(=O)[C@H](Cc2c[nH]cn2)NC(=O)[C@@H]2CSSC[C@H](NC(=O)CN)C(=O)N[C@@H](CSSC[C@@H](C(N)=O)NC1=O)C(=O)N[C@@H](CO)C(=O)N[C@@H](CC(N)=O)C(=O)N[C@@H](C)C(=O)N[C@@H](C(C)C)C(=O)N2 [MII[P6A]] (H-GCCSNAVCHLEHSNLC-NH2; disulfide 2-8, 3-16) and test system Rat α3β2 nAChR (Rattus norvegicus, UniProt P04757+P12390), the measured pIC50 is 5.35

====

Target: Rat α3β2 nAChR (Rattus norvegicus, UniProt P04757+P12390)
Construct: expressed in transfected cells; host or cells: Xenopus laevis oocytes, cRNA injected
Assay: cell-based
Type: cell-based
Where a SMILES comes first, the peptide text is derived from it. Bridges are numbered along the chain shown (N, C = ends).
observedProperty: Hill slope, α3β2

compound	Hill slope, α3β2
CC(C)C[C@@H]1NC(=O)[C@H](Cc2c[nH]cn2)NC(=O)[C@@H]2CSSC[C@H](NC(=O)CN)C(=O)N[C@@H](CSSC[C@@H](C(N)=O)NC(=O)[C@H](C)NC(=O)[C@H](CC(N)=O)NC(=O)[C@H](CO)NC(=O)[C@H](Cc3c[nH]cn3)NC(=O)[C@H](CCC(=O)O)NC1=O)C(=O)N[C@@H](CO)C(=O)N[C@@H](CC(N)=O)C(=O)N1CCC[C@H]1C(=O)N[C@@H](C(C)C)C(=O)N2 [MII[L15A]] (H-GCCSNPVCHLEHSNAC-NH2; disulfide 2-8, 3-16)	0.58±0.08
CC(C)C[C@@H]1NC(=O)[C@H](C)NC(=O)[C@@H]2CSSC[C@H](NC(=O)CN)C(=O)N[C@@H](CSSC[C@@H](C(N)=O)NC(=O)[C@H](C)NC(=O)[C@H](CC(N)=O)NC(=O)[C@H](CO)NC(=O)[C@H](Cc3c[nH]cn3)NC(=O)[C@H](CCC(=O)O)NC1=O)C(=O)N[C@@H](CO)C(=O)N[C@@H](CC(N)=O)C(=O)N1CCC[C@H]1C(=O)N[C@@H](C(C)C)C(=O)N2 [MII[H9A; L15A]] (H-GCCSNPVCALEHSNAC-NH2; disulfide 2-8, 3-16)	0.48±0.04
CC(C)C[C@@H]1NC(=O)[C@H](C)NC(=O)[C@@H]2CSSC[C@H](NC(=O)CN)C(=O)N[C@@H](CSSC[C@@H](C(N)=O)NC(=O)[C@H](CC(C)C)NC(=O)[C@H](CC(N)=O)NC(=O)[C@H](CO)NC(=O)[C@H](Cc3c[nH]cn3)NC(=O)[C@H](CCC(=O)O)NC1=O)C(=O)N[C@@H](CO)C(=O)N[C@@H](CC(N)=O)C(=O)N1CCC[C@H]1C(=O)N[C@@H](C(C)C)C(=O)N2 [MII[H9A]] (H-GCCSNPVCALEHSNLC-NH2; disulfide 2-8, 3-16)	0.83±0.08

Continue with the next compound.
Given the compound CC(C)C[C@@H]1NC(=O)[C@H](CC(N)=O)NC(=O)[C@H](CO)NC(=O)[C@H](Cc2c[nH]cn2)NC(=O)[C@H](CCC(=O)O)NC(=O)[C@H](CC(C)C)NC(=O)[C@H](Cc2c[nH]cn2)NC(=O)[C@@H]2CSSC[C@H](NC(=O)CN)C(=O)N[C@@H](CSSC[C@@H](C(N)=O)NC1=O)C(=O)N[C@@H](CO)C(=O)N[C@@H](CC(N)=O)C(=O)N1CCC[C@H]1C(=O)N[C@@H](C(C)C)C(=O)N2 [MII, reference compound] and test system Rat α3β2 nAChR (Rattus norvegicus, UniProt P04757+P12390), the measured Hill slope, α3β2 is 0.75±0.13

====

Biological target: Mouse CNS α-MII Site (putative α6β2* nAChRs)
Where a SMILES comes first, the peptide text is derived from it. Bridges are numbered along the chain shown (N, C = ends).
observedProperty: Ki (nM)
Numbers only, in nM.

State the recorded Ki for every item in the following list.
1. CC(C)C[C@@H]1NC(=O)[C@H](C)NC(=O)[C@@H]2CSSC[C@H](NC(=O)CN)C(=O)N[C@@H](CSSC[C@@H](C(N)=O)NC(=O)[C@H](CC(C)C)NC(=O)[C@H](CC(N)=O)NC(=O)[C@H](CO)NC(=O)[C@H](Cc3c[nH]cn3)NC(=O)[C@H](CCC(=O)O)NC1=O)C(=O)N[C@@H](CO)C(=O)N[C@@H](CC(N)=O)C(=O)N1CCC[C@H]1C(=O)N[C@@H](C(C)C)C(=O)N2 [MII[H9A]] (H-GCCSNPVCALEHSNLC-NH2; disulfide 2-8, 3-16)
2. CC(C)C[C@@H]1NC(=O)[C@H](C)NC(=O)[C@@H]2CSSC[C@H](NC(=O)CN)C(=O)N[C@@H](CSSC[C@@H](C(N)=O)NC(=O)[C@H](C)NC(=O)[C@H](CC(N)=O)NC(=O)[C@H](CO)NC(=O)[C@H](Cc3c[nH]cn3)NC(=O)[C@H](CCC(=O)O)NC1=O)C(=O)N[C@@H](CO)C(=O)N[C@@H](CC(N)=O)C(=O)N1CCC[C@H]1C(=O)N[C@@H](C(C)C)C(=O)N2 [MII[H9A; L15A]] (H-GCCSNPVCALEHSNAC-NH2; disulfide 2-8, 3-16)
3. CC(C)C[C@@H]1NC(=O)[C@H](Cc2c[nH]cn2)NC(=O)[C@@H]2CSSC[C@H](NC(=O)CN)C(=O)N[C@@H](CSSC[C@@H](C(N)=O)NC(=O)[C@H](C)NC(=O)[C@H](CC(N)=O)NC(=O)[C@H](CO)NC(=O)[C@H](Cc3c[nH]cn3)NC(=O)[C@H](CCC(=O)O)NC1=O)C(=O)N[C@@H](CO)C(=O)N[C@@H](CC(N)=O)C(=O)N1CCC[C@H]1C(=O)N[C@@H](C(C)C)C(=O)N2 [MII[L15A]] (H-GCCSNPVCHLEHSNAC-NH2; disulfide 2-8, 3-16)
4. CC(C)C[C@@H]1NC(=O)[C@H](CC(N)=O)NC(=O)[C@H](CO)NC(=O)[C@H](Cc2c[nH]cn2)NC(=O)[C@H](CCC(=O)O)NC(=O)[C@H](CC(C)C)NC(=O)[C@H](Cc2c[nH]cn2)NC(=O)[C@@H]2CSSC[C@H](NC(=O)CN)C(=O)N[C@@H](CSSC[C@@H](C(N)=O)NC1=O)C(=O)N[C@@H](CO)C(=O)N[C@@H](CC(N)=O)C(=O)N1CCC[C@H]1C(=O)N[C@@H](C(C)C)C(=O)N2 [MII, reference compound]
5. CC(C)C[C@@H]1NC(=O)[C@H](Cc2c[nH]cn2)NC(=O)[C@@H]2CSSC[C@H](NC(=O)CN)C(=O)N[C@@H](CSSC[C@@H](C(N)=O)NC(=O)[C@H](CC(C)C)NC(=O)[C@H](CC(N)=O)NC(=O)[C@H](CO)NC(=O)[C@H](Cc3c[nH]cn3)NC(=O)[C@H](C)NC1=O)C(=O)N[C@@H](CO)C(=O)N[C@@H](CC(N)=O)C(=O)N1CCC[C@H]1C(=O)N[C@@H](C(C)C)C(=O)N2 [MII[E11A]] (H-GCCSNPVCHLAHSNLC-NH2; disulfide 2-8, 3-16)

[1.1, 3.3, 0.3, 0.22, 0.27]
